- System: thrombocyte aggregation
- Protocol Description: inhibition of thrombocyte aggregation induced by adenosine diphosphate (ADP), Born and Cross
- Format: cell-based
- Protocol Conditions: 10 min, platelet-rich human plasma, 10 min at 37°C, read-out: ED50 (concentration which reduces the maximum light-permeability after addition of ADP by 50%)
Property Measured: pIC50
Recall that pIC50 is obtained by taking minus log10 of the concentration measured in molar.

Data request: Quick check: pIC50 of [O-][S+]1CCN(c2nc(N3CCNCC3)cc3ccccc23)CC1 ?
Data returned: 4.52

* * *

- Protocol Description: acute toxicity in white mice after oral or intravenous administration
- Assay type: in vivo
- Protocol Conditions: mouse, in vivo, po, observation time 14 days, read-out: Toxicity (p.o. bound)
Please respond with reported LD50 at 336 h for every item in the list.

Data request: Can you look up the measured LD50 at 336 h of Cc1cccc2c(N3CC[S+]([O-])CC3)nc(N3CCNCC3)cc12 for me?
Data returned: > 250 mg/kg

Data request: Give its LD50 at 336 h value. Item: [O-][S+]1CCN(c2nc(N3CCNCC3)cc3c(Cl)cccc23)CC1
Data returned: > 250 mg/kg

Data request: Which LD50 at 336 h is reported for this compound? CN1CCN(c2cc3ccccc3c(N3CCOCC3)n2)CC1
Data returned: > 250 mg/kg
